# Measurement target: AuroraB (Homo sapiens, UniProt Q96GD4)
# Construct: 20 μL of AuroraB FL H is for a final volume of 41 μL; His
# Sequence (Q96GD4 whole entry): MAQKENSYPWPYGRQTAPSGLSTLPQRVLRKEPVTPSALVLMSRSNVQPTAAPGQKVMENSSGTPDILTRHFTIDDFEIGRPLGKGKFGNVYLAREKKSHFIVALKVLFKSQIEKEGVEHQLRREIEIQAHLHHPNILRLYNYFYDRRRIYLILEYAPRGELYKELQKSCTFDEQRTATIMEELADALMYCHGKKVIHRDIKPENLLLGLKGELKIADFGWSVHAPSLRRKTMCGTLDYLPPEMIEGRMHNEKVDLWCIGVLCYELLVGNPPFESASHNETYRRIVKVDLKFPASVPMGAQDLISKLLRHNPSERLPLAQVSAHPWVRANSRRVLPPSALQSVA
# Method: AuroraB Homogeneous Time Resolved Fluorescent (HTRF) kinase assay
# Type: biochemical
# Recorded conditions: average; read-out: AurB_IC50_IP (uM Avg)
Heads up, the class ranges for IC50 are label 0: < 0.01 µM; label 1: ≥ 0.01 µM and < 0.03 µM; label 2: ≥ 0.03 µM

Previously resolved entries follow.
[[record]]
compound = "COCCCNc1nnc(Nc2ccc(Sc3ccnc4cc(OC)cnc34)cc2)c2ccccc12"
category = "label 1"

[[record]]
compound = "COc1cnc2c(Oc3ccc(Nc4nnc(-c5cn[nH]c5)c5ccccc45)cc3)ccnc2c1"
category = "label 1"

[[record]]
compound = "C[Si](C)(C)c1cc2nccc(Sc3ccc(Nc4nnc(Cl)c5ccccc45)cc3)c2o1"
category = "label 2"


Where would COc1cnc2c(Oc3ccc(Nc4nnc(-c5ccc(OC)c(C)c5)c5ccccc45)cc3)ccnc2c1 land among the classes by reported IC50?
label 1

Try the compound Cc1csc(-c2nnc(Nc3ccc(Sc4ccnc5ccoc45)cc3)c3ccccc23)c1
label 1

Try the compound COc1cc(F)cc2nccc(Sc3ccc(Nc4nnc(-c5cc(C)cs5)c5ccccc45)cc3)c12
label 2

Try the compound COc1cnc2c(Sc3ccc(Nc4nnc(C(C)C)c5ccccc45)cc3)ccnc2c1
label 2

Try the compound COc1cnc2c(Oc3ccc(Nc4nnc(-c5cccc(C)c5)c5ccccc45)cc3)ccnc2c1 [compound 317]
label 1

---

Exercise: state measured IC50 for each of the compounds provided.
# Measurement target: AuroraB (Homo sapiens)
# Construct: 20 μL of AuroraB FL H is for a final volume of 41 μL; His
# Method: AuroraB Homogeneous Time Resolved Fluorescent (HTRF) kinase assay
# Type: biochemical
# Recorded conditions: average; read-out: AurB_IC50_IP (uM Avg)

Worked examples, 2 compounds total:
[[record]]
compound = "COCCOc1ccc(-c2nnc(Nc3ccc(Sc4ccnc5cc(OC)cnc45)cc3)c3ccccc23)cc1 [compound 474]"
measurement_target = "AuroraB (Homo sapiens)"
reported_result = "0.016 µM"

[[record]]
compound = "COc1cnc2c(Oc3ccc(Nc4nnc(-c5ccc([S+](C)[O-])cc5)c5ccccc45)cc3)ccnc2c1 (stereo not shown) [compound 262]"
measurement_target = "AuroraB (Homo sapiens)"
reported_result = "0.006 µM"


# map each compound to its IC50
1. c1ccc(-c2nnc(Nc3ccc(Sc4ncnc5ccccc45)cc3)c3ccccc23)cc1 [compound 561]
2. COc1cnc2c(Oc3ccc(Nc4nnc(N5CCCCCC5)c5ccccc45)cc3)ccnc2c1 [Example 32]
3. COc1cnc2c(Oc3ccc(Nc4nnc(-c5cc(C)ccn5)c5ccccc45)cc3)ccnc2c1 [compound 116]
4. Cc1noc(-c2cc3nccc(Oc4ccc(Nc5nnc(-c6ccc(Cl)cc6)c6ccccc56)cc4)c3s2)n1 [compound 286]

> 5 µM
0.009 µM
0.011 µM
0.022 µM

# map each compound to its IC50
1. CCc1cc(-c2cccc(Cl)c2)nnc1Nc1ccc(Oc2ccnc3cc(OC)cnc23)cc1 [compound 335]
2. COc1cnc2c(Oc3ccc(Nc4nnc(-c5ccc6c(c5)CC(C)(C)O6)c5ccccc45)cc3)ccnc2c1 [compound 136]
3. COc1cnc2c(Sc3ccc(Nc4nnc(-c5ccc(C)nc5)c5ccccc45)cc3)ccnc2c1 [compound 588]

1. 0.021 µM
2. 0.016 µM
3. 0.017 µM

# map each compound to its IC50
1. COc1cc2nccc(Oc3ccc(Nc4nnc(-n5nc(C)cc5C)c5ccccc45)cc3F)c2cc1OC [compound 77]
2. COc1cnc2c(Oc3ccc(Nc4nnc(N5CCN6CCC[C@H]6C5)c5ccccc45)cc3)ccnc2c1 [compound 97]
3. Clc1ccc(-c2nnc(Nc3ccc(Oc4ccnc5ccoc45)cc3)c3ccccc23)cc1 [compound 483]
4. N#Cc1ccc2c(Oc3ccc(Nc4nnc(-c5ccc(Cl)cc5)c5ccccc45)cc3)ccnc2c1 [compound 242]

0.079 µM
0.002 µM
0.013 µM
0.022 µM

---

# Measurement target: AuroraA-TPX2 (Homo sapiens)
# Construct: 20 μL of AuroraA-TPX2 KD GST for a final volume of about 41 μL; GST
# Sequence (O14965 133-383 limits assumed): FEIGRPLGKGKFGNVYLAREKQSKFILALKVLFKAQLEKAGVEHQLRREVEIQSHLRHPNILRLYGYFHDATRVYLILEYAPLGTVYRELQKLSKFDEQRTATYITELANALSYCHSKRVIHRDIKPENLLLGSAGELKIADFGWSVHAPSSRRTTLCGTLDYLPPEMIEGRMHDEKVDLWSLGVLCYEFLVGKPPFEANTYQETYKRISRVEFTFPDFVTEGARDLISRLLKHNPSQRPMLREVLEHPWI
# Sequence (Q9ULW0 1-43 partner limits assumed): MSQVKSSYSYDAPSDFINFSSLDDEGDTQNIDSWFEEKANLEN
# Method: AuroraA-TPX2 Homogeneous Time Resolved Fluorescent (HTRF) kinase assay
# Assay type: biochemical
# Recorded conditions: average; read-out: AurA_IC50_IP (uM Avg)
Result type: IC50
Put down the number, then write its unit next to it.

# map each compound to its IC50
1. COc1cnc2c(Oc3ccc(Nc4nnc(-c5ccc(Cl)nc5)c5ccccc45)cc3)ccnc2c1 [compound 235]
2. COc1cnc2c(Oc3ccc(Nc4nnc(-c5cc6ccccc6s5)c5ccccc45)cc3)ccnc2c1 [compound 171]
3. COc1cnc2c(Oc3ccc(Nc4nnc(-c5cccc(C)n5)c5ccccc45)cc3)ccnc2c1 [compound 111]
4. COc1cnc2c(Oc3ccc(Nc4nnc(-c5ccc(C(F)(F)F)cc5)c5ccccc45)cc3)ccnc2c1 [compound 146]
5. COc1cnc2c(Sc3ccc(Nc4nnc(N5CCc6sccc6C5)c5ccccc45)cc3)ccnc2c1 [compound 578]

1: 0.123 µM; 2: 0.013 µM; 3: 0.04 µM; 4: 0.026 µM; 5: 0.033 µM

# map each compound to its IC50
1. COc1cnc2c(Sc3ccc(Nc4nnc(-c5ccccc5F)c5ccccc45)cc3)ccnc2c1 [compound 495]
2. COc1cc2nccc(Oc3ccc(Nc4nnc(N5CCCCC5)c5ccccc45)cc3)c2cc1OC [compound 75]

["0.15 µM", "0.023 µM"]

# map each compound to its IC50
1. COc1cnc2c(Sc3ccc(Nc4nnc(OCCC5CCCCN5)c5ccccc45)cc3)ccnc2c1 (stereo not shown) [Example 403]
2. COc1cnc2c(Oc3ccc(Nc4ncc(-c5ccccc5)c5ccccc45)cc3)ccnc2c1 [compound 144]
3. COc1cnc2c(Oc3ccc(Nc4nnc(N5CCCCCC5)c5ccccc45)cc3)ccnc2c1 [Example 32]
4. COc1cnc2c(Oc3ccc(Nc4nnc(-c5ccc(N(C)C)cc5)c5ccccc45)cc3)ccnc2c1 [compound 194]

["0.239 µM", "0.061 µM", "0.016 µM", "0.023 µM"]

# map each compound to its IC50
1. COc1ccccc1-c1nnc(Nc2ccc(Oc3ccnc4cc(C#N)ccc34)cc2)c2ccccc12 [compound 119]
2. CCc1cc(-c2ccccc2)nnc1Nc1ccc(Oc2ccnc3cc(OC)cnc23)nc1 [compound 83]
3. COc1cnc2c(Sc3ccc(Nc4nnc(N5CCN6CCC[C@@H]6C5)c5ccccc45)cc3)ccnc2c1 [compound 582]
4. c1ccc(-c2nnc(Nc3ccc(Sc4ccnc5cc[nH]c45)cc3)c3ccccc23)cc1 [compound 462]
5. Cc1ccc(-c2nnc(Nc3ccc(Sc4ccnc5cc(C#N)sc45)cc3)c3ccccc23)cn1 [compound 461]

1. 0.175 µM
2. 0.08 µM
3. 0.029 µM
4. 0.557 µM
5. 0.044 µM

---

# Measurement target: AuroraB (Homo sapiens)
# Construct: 20 μL of AuroraB FL H is for a final volume of 41 μL; His
# Method: AuroraB Homogeneous Time Resolved Fluorescent (HTRF) kinase assay
# Assay type: biochemical
# Recorded conditions: average; read-out: AurB_IC50_IP (uM Avg)
Exercise: state measured log10 IC50 for each of the molecules provided.
Transform log10 | Measure IC50 | Unit µM

Worked examples, 6 molecules total:
[[record]]
molecule = "COc1cnc2c(Sc3ccc(Nc4nnc(N5CCc6sccc6C5)c5ccccc45)cc3)ccnc2c1 [compound 578]"
reported_result = -1.09

[[record]]
molecule = "Cc1csc(-c2nnc(Nc3ccc(Oc4ccnc5ccncc45)cc3)c3ccccc23)c1 [compound 429]"
reported_result = -1.92

[[record]]
molecule = "COc1cnc2c(Oc3ccc(Nc4nnc(-c5ccc(Cl)cc5)c5ccccc45)cc3)ccnc2c1 [Example 160]"
reported_result = -2.52

[[record]]
molecule = "COc1cnc2c(Oc3ccc(Nc4nnc(-c5ccc6c(c5)OC(F)(F)O6)c5ccccc45)cc3)ccnc2c1 [compound 291]"
reported_result = -2.00

[[record]]
molecule = "CCc1cc(-c2ccc(Cl)cc2)nnc1Nc1ccc(Oc2ccnc3cc(OC)cnc23)nc1 [compound 275]"
reported_result = -1.96

[[record]]
molecule = "COc1cnc2c(Oc3ccc(Nc4nnc(-c5ccc(C)cc5)c5ccccc45)cc3)ccnc2c1 [compound 81]"
reported_result = -2.22


# map each molecule to its log10 IC50
1. COc1cnc2c(Oc3ccc(Nc4nnc(-c5cccc(C(=O)N(C)C)c5)c5ccccc45)cc3)ccnc2c1 [compound 226]
2. c1ccc(-c2nnc(Nc3ccc(Oc4ccnc5cc(-c6ccsc6)ccc45)cc3)c3ccccc23)cc1 [compound 339]
3. COc1cnc2c(Oc3ccc(Nc4nnc(-c5ccc(C(C)C)cc5)c5ccccc45)cc3)ccnc2c1 [compound 155]
4. COc1ccc2nccc(Oc3ccc(Nc4nnc(-c5ccc(Cl)cn5)c5ccccc45)cc3)c2c1 [compound 278]
5. COc1cnc2c(Oc3c(F)cc(Nc4nnc(-c5ccc(Cl)cc5)c5ccccc45)cc3F)ccnc2c1 [compound 454]
6. COc1cnc2c(Oc3ccc(Nc4nnc(-c5ccnn5C)c5ccccc45)cc3)ccnc2c1 [compound 223]
7. COc1cnc2c(Oc3ccc(Nc4nnc(-c5ccc(C(F)(F)F)c(Cl)c5)c5ccccc45)cc3)ccnc2c1 [compound 172]

1: -1.85; 2: -1.55; 3: -1.96; 4: -2.40; 5: -2.00; 6: -1.41; 7: -1.77

# map each molecule to its log10 IC50
1. COc1cnc2c(Oc3ccc(Nc4nnc(-c5ccc(C)s5)c5ccccc45)cc3)ccnc2c1 [compound 138]
2. c1ccc(-c2nnc(Nc3ccc(Oc4ncnc5[nH]ccc45)cc3)c3ccccc23)cc1 [compound 273]
3. Clc1ccc(-c2nnc(Nc3ccc(Sc4ccnc5[nH]ncc45)cc3)c3ccccc23)cc1 [compound 359]

[-1.89, -1.41, -1.77]
